Where do the numbers come from? From patent US9192569B2.

assay: In vivo plasma half-life in mice; conditions: mouse, IV, 9.3 mL/Kg of 3.2 mg/mL solution of Example 1, LC-MS

smilesData | half-life
CC[C@H](C)[C@@H]1NC(=O)[C@@H]2NC(=O)[C@H](CC(C)C)NC(=O)[C@H](NC(=O)[C@@H]3CSC[C@@H](N)C(=O)N[C@@H](CO)C(=O)NCC(=O)N[C@@H](Cc4c[nH]c5ccccc45)C(=O)N[C@@H](C(C)C)C(=O)N3)[C@H](C)SC[C@H](NC(=O)[C@H](CCC(=O)O)NC1=O)C(=O)NCC(=O)N[C@H]1C(=O)N[C@@H](CC(C)C)C(=O)N[C@@H](C(C)C)C(=O)N[C@@H](CS[C@H]2C)C(=O)N[C@@H](C)C(=O)N[C@H](C(=O)NCc2cc(Cl)cc(Cl)c2)CS[C@H]1C | ~2 h
